experiment: PBMC viability assay (72 h MTT); assay type: cell-based, human; conditions: human, peripheral blood mononuclear cells (PBMCs), PBMC, 0.003 µM (printed 0.003M), read-out: % cell viability
VALUE_TYPE: viability at 72 h, 0.003 µM (%)
Write down the numeric answer in % and omit the unit.

Prompt: What value of measured viability at 72 h, 0.003 µM is listed for CN(C)C1CCN(C(=O)c2ccc(NC(=O)Nc3ccc(-c4nc(N5CCOCC5)nc(N5CCOCC5)n4)cc3)cc2)CC1 [Gedatolisib, gedatolisib] ?
Response: 85

====

test system: K562; assay: MTT cell viability assay; format: cell-based; conditions: Homo sapiens; K562, 72 h MTT; read-out: Emax (maximum effect at maximum concentration used)
// reported Emax for each item listed
Write down the numeric answer in % and omit the unit.

{"columns": ["COMPOUND", "Emax / %"],
 "data": [
  ["CN1CCN(c2nc(N3CCOCC3)nc(N3CCN(c4ccccc4)CC3)n2)CC1 [5d]", 80],
  ["c1ccc(N2CCN(c3nc(N4CCCNCC4)nc(N4CCOCC4)n3)CC2)cc1 [5f]", 84],
  ["CN(C)C1CCN(C(=O)c2ccc(NC(=O)Nc3ccc(-c4nc(N5CCOCC5)nc(N5CCOCC5)n4)cc3)cc2)CC1 [Gedatolisib, gedatolisib]", 64],
  ["c1ccc(N2CCN(c3nc(N4CCNCC4)nc(N4CCOCC4)n3)CC2)cc1 [5c]", 85]
]}

Next compound, Emax to be filled in.
Prompt: What value of measured Emax is listed for O=C1NC(=O)/C(=C/c2ccc3nccc(-c4ccncc4)c3c2)S1 [GSK-1059615, reference compound] ?
Response: 84

Cited source for all entries: paper PMC9964390
